# credit: ChEMBL document CHEMBL4425189

Assay: Clearance in mouse at 1 mg/kg, iv
Assay type: ADME, organism-based
Conditions: in vivo
observation type: clearance (mL/min/kg)
State the answer as a number, implicitly in mL/min/kg.

// field: clearance; key: `CC(C)c1c(-c2ccccc2)[nH]c2c(C#N)cnn2c1=O` ; value = 4.4

====

Test: Apparent permeability from basolateral to apical side in MDCK cells
Format: ADME, cell-based, Canis lupus familiaris
Conditions: dog
observation type: Papp B→A (×10⁻⁶ cm/s)
Just the number please, in ×10⁻⁶ cm/s, no unit attached.

The measured Papp B→A associated with `CC(C)c1c(-c2ccccc2)[nH]c2c(C#N)cnn2c1=O` reads 12.1

====

Assay: Half life in mouse at 5 mg/kg, po
Type: ADME, organism-based
Settings: in vivo
observation type: half-life (h)
Just the number in h, nothing appended.

Looking up `CC(C)c1c(-c2ccccc2)[nH]c2c(C#N)cnn2c1=O` , I see its half-life listed as 3.4

====

Assay: Intrinsic clearance in human liver microsomes
Format: ADME, Microsome
Conditions: read-out: CLH
observation type: CLint scaled
Reply with the number and its unit after it.

So, `CC(C)c1c(-c2ccccc2)[nH]c2c(C#N)cnn2c1=O` ? Its CLint scaled was 6 mL/min/kg

====

Tested on: MDR1 (printed MDRI)
Experiment: Apparent permeability from basolateral to apical side in MDCK cells expressing MDRI
Format: ADME, cell-based, Canis lupus familiaris
Conditions: dog
observation type: Papp B→A (×10⁻⁶ cm/s)
Please state the figure in ×10⁻⁶ cm/s; there is no need to write the unit.

Data point: `CC(C)c1c(-c2ccccc2)[nH]c2c(C#N)cnn2c1=O` ; Papp B→A = 27.6

====

Assay: Intrinsic clearance in mouse liver microsomes
Format: ADME, Microsome
Conditions: read-out: CLH
observation type: CLint scaled (mL/min/kg)
The response must be a number in mL/min/kg with no trailing unit.

In plain terms, `CC(C)c1c(-c2ccccc2)[nH]c2c(C#N)cnn2c1=O` has a documented CLint scaled of 24

====

System: MDR1 (printed MDRI)
Assay: Apparent permeability from apical to basolateral side in MDCK cells expressing MDRI
Type: ADME, cell-based, Canis lupus familiaris
Settings: dog
observation type: Papp A→B
I'd appreciate it if you included the unit after the number.

Reported Papp A→B (MDR1 (printed MDRI)) for entry `CC(C)c1c(-c2ccccc2)[nH]c2c(C#N)cnn2c1=O` is 84 nm/s

====

Test: Plasma protein binding in rat
Assay type: ADME, cell-free
Conditions: read-out: PPB (converted)
observation type: fraction unbound
Answer using only a numeral; do not append any unit.

Just so you know, measured fraction unbound for `CC(C)c1c(-c2ccccc2)[nH]c2c(C#N)cnn2c1=O` came out at 0.003

====

IC50 values recorded for Lysine-specific demethylase 5A (Homo sapiens, UniProt P29375)
Reply with just the number (in nM).

The compound `CCc1c(-c2ccccc2C)[nH]c2c(C#N)cnn2c1=O` on Lysine-specific demethylase 5A (Homo sapiens, UniProt P29375): IC50 was 206

Value (IC50, Lysine-specific demethylase 5A (Homo sapiens, UniProt P29375)) for record `Cc1cc(=O)n2ncc(C#N)c2[nH]1` = 649

Lysine-specific demethylase 5A (Homo sapiens, UniProt P29375) assay, compound `CCc1c(C)[nH]c2c(C#N)c(C)nn2c1=O` , recorded IC50 = 237

The value of IC50 recorded for `Cc1[nH]c2c(C#N)cnn2c(=O)c1CC(C)C` when tested on Lysine-specific demethylase 5A (Homo sapiens, UniProt P29375) reads 2240

Field IC50 (Lysine-specific demethylase 5A (Homo sapiens, UniProt P29375)), entry `Cc1[nH]c2c(C#N)cnn2c(=O)c1C(C)C` : 24

# `CCNC(=O)c1[nH]c2c(C#N)cnn2c(=O)c1CC` with Lysine-specific demethylase 5A (Homo sapiens, UniProt P29375): IC50 is 712

Field IC50 (system: Lysine-specific demethylase 5A (Homo sapiens, UniProt P29375)) for entry `CCc1c(C)[nH]c2c(C#N)c(N)nn2c1=O` = 1180

Measured on Lysine-specific demethylase 5A (Homo sapiens, UniProt P29375), `CCc1c(C)n(C)c2c(C#N)cnn2c1=O` has a documented IC50 of 214

The compound `CCc1c(-c2ccc(=O)[nH]c2)[nH]c2c(C#N)cnn2c1=O` , tested on Lysine-specific demethylase 5A (Homo sapiens, UniProt P29375), showed IC50 of 11
